src = the supplement of paper PMC11865577

System: TO-3-N3 (biotin conjugate)
Test description: pull-down binding Z-score (relative to library population); higher = stronger binding
Condition description: RNA library: Library-2
Label class 1 when pull-down binding Z-score is at or above 0.03; anything below gets class 0.

CUCACCAUAGUGGUGGA [hsa-mir-1288] ... class 0

// query Reported pull-down binding Z-score reaches at least 0.03 for CCAAAGAAACUUUUUUGG [hsa-mir-6079] ?
// result class 0

// query Reported pull-down binding Z-score reaches at least 0.03 for GAGGUAAGUACGAUACUUACCUG [U1snRNP5ss-7] ?
// result class 0

// query Reported pull-down binding Z-score reaches at least 0.03 for AACAUACAUUUGUCUUGGUGUGUU [hsa-mir-4684] ?
// result class 0

// query Reported pull-down binding Z-score reaches at least 0.03 for GAGACGGUCGGGUCCAGAUAUUCGUAUCUGUCGAGUAGAGUGUGGGCUCC [Broccoli] ?
// result class 1

// query Reported pull-down binding Z-score reaches at least 0.03 for GUGAAACAUUUGUCAC [SHAPE_invivo_SARS-CoV-2_Motif_46] ?
// result class 1

// query Reported pull-down binding Z-score reaches at least 0.03 for AUCUUCUGCAGGCUGCUUACGGUUUCGUCCGUGUUGCAGCCGAUCAUCAGCACAUCUAGGUUUUGUCCGGGUGUGACCGAAAGGUAAGAU [DMSMaPseq_invitro_SARS-CoV-2_Multi_2_ComplexLevel_1] ?
// result class 0

// query Reported pull-down binding Z-score reaches at least 0.03 for AAUUUUCUCUUGUCUAAAAGAAAAGAACG [hsa-mir-521-2] ?
// result class 0

// query Reported pull-down binding Z-score reaches at least 0.03 for GGAUUUGCUUCCUGUCACAAAUCA [hsa-mir-23a] ?
// result class 1

// query Reported pull-down binding Z-score reaches at least 0.03 for UCCGGCCGGCCAUGCUGGCGGGG [hsa-mir-762] ?
// result class 0

====

Test system: TO-3-N3 (biotin conjugate)
Test description: pull-down binding Z-score (relative to library population); higher = stronger binding
Condition description: RNA library: Library-2
Catalogue of pull-down binding Z-score readings, one per entry.

// known answers, use as guide
CUUUCUGUGACUUUAAAAGUAAG [hsa-mir-302b] ... -0.538
GGGACAUUGCGGAGAGGGUCUCACAUUGUCCC [hsa-mir-4646] ... 0.894
AGCCCUGUUGUUGUAAGAUAGUGU [hsa-mir-550a-1] ... -0.325
GCUUGAAGUGGAGC [IAV_invivo_NS1_NEP_8_Motif_14+IAV_invivo_NS1_NEP_8_Motif_14] ... -0.454

Please find the next sequence below.
// query Could you tell me which pull-down binding Z-score is on file for UGGGGUUGGGGUUGGGGUUGGGGUUGGGGUUGGGGUUGGGGUUGGGGU [G4_r(UGGGGU)8] ?
// result 7.69

====

System: TO-3-N3-2 (biotin conjugate)
Test description: pull-down binding Z-score (relative to library population); higher = stronger binding
Condition description: RNA library: Library-2
Catalogue of pull-down binding Z-score readings, one per entry.

// known answers, use as guide
GGCCCCAGGAAGAAGGGCCUGGUGGAGCC [hsa-mir-6743] ... 0.267
UCAUAAAUAUUUUAAGGAAUGACCCGGCCCUGGGG [hsa-mir-4285] ... 0.31
AUGCUUGGAACAGGAAGAGAAUCAGCAACUGUGUUGCUGAUUAUUCUGUCCUAUAUAAUUCCGCAU [DMSMaPseq_invitro_SARS-CoV-2_Motif_399] ... -0.327
UAUGCCUACAAAAUCCCUCCAGACUGGCAUA [hsa-mir-4666a] ... -0.346
GUUAAUGCCUAUAUUAACCUUGACCAGGGCUUUAAC ... -0.198
ACAGGUUUUAUCGAACCUGU [IAV_invivo_PB1_2_Motif_25+IAV_invivo_PB1_2_Motif_25] ... -0.571
UUUGUGUAAGGAAUUUUGUGGUCACAAA [hsa-mir-10a] ... -0.175
UUUCUUAAAUUUUAUAUAUUGGAA [hsa-mir-1284] ... -0.0723

// query Could you tell me which pull-down binding Z-score is on file for GGGAGCUAUAAACAGCAGUCUCCC [IAV_invivo_HA_4_Motif_12+IAV_invivo_HA_4_Motif_12] ?
// result 0.213

// query Could you tell me which pull-down binding Z-score is on file for GUUCGGGGGUUCCGACGGCGAC [hsa-mir-6790] ?
// result 0.957

// query Could you tell me which pull-down binding Z-score is on file for CAGUGAGCUAUGAUCAUGUCCCUG [hsa-mir-1254-2] ?
// result -0.1

// query Could you tell me which pull-down binding Z-score is on file for AAUGCUGUGUUUCUGUAUGGUAUU [hsa-mir-92a-1] ?
// result -0.22

// query Could you tell me which pull-down binding Z-score is on file for `AACAGCAGACAACCCUUAAGGGUGUAGAAGCUGUU` ?
// result -0.692

// query Could you tell me which pull-down binding Z-score is on file for CUUUCUGUUGGCUAAAAGAAAAGAAAG [hsa-mir-518e] ?
// result 0.129
